Values from the Human Domainome abundance scans (Beltran et al. 2025)

B1: POU domain, class 3, transcription factor 3, residues 408 to 463; numbered along this chain, P20264 (parent)
chain: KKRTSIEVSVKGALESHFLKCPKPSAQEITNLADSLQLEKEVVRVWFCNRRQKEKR

Variants of: B1
Experiment: abundance fitness (aPCA) (normalised: wild type 0, dead -1); higher = more abundant; growth selection in yeast, the domain comes from the species named
Settings: Homo sapiens

variant-identifier | abundance fitness
G12C | 0.096
K20G | -0.366
L19R | -0.024
R50T | -0.883
C48D | -0.029
E41R | -0.352
L19T | -0.155
A13D | -0.355
C48Q | 0.131
I29V | -0.204
E28P | -0.838
G12L | 0.104
T30S | 0.031
V45E | 0.034
K20I | -0.191
A33G | -0.623
C48Y | 0.068
E54C | -0.366
A33E | -0.964
E7K | 0.028
E41C | -0.54
K40I | 0.048
V42K | -0.333
K11R | -0.045
N49G | -0.279
T4A | -0.17
R3H | -0.273
L14C | -0.662
K53R | -0.044
N49D | -0.177
T30V | -0.1
K40Q | 0.122
K2V | -0.048
A26R | -0.073
A33L | -0.889
E41G | -0.305
K53V | -0.03
F18K | -0.925
F18R | -0.935
K23G | -0.252
D34N | 0.143
E39L | -0.719
K55A | -0.038
L32I | 0.187
P24V | -0.792
V45W | -0.162
S5W | -0.255
H17S | -0.039
S9P | -0.068
F18A | -0.84
L38R | -0.889
Q37T | -0.257
A33M | -0.823
K2N | -0.094
K1Q | -0.271
F47D | -0.295
K2Y | -0.391
K40R | -0.06
S16Y | -0.004
L36Q | -0.812
Q27P | -0.279
V10S | -0.153
E39H | -0.224
G12W | -0.25
S5T | 0.135
S5M | 0.125
L36P | -1.03
G12A | 0.227
W46S | -0.422
N49P | -0.881
T4Y | -0.19
S35K | 0.162
E15A | -0.858
A26E | 0.031
K40M | -0.336
Q52V | -0.112
V8C | -0.171
S9F | -0.285
R51I | -0.207
